Test system: HSC-2 (Oral Cavity Carcinoma);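 further: after 72 h of two-drug dosing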
protocol: Bliss excess, mean over the matrix (fraction); higher = more synergy
recorded_metric: Bliss excess
One number for each entry.

Look up Bliss excess for this molecule: CN(CCO)CC[C@H](CSc1ccccc1)Nc1ccc(S(=O)(=O)NC(=O)c2ccc(N3CCC([C@@H](O)c4ccccc4-c4ccc(Cl)cc4)CC3)cc2)cc1S(=O)(=O)C(F)(F)F [AZD4320] + CN(C)CCCOc1ccc(-c2ccc3ncc4c(c3c2)n(C2CCOCC2)c(=O)n4C)cn1 [AZD0156] (first compound max 1 µM, 7x7, partner max 1 µM)
-0.0242

Using the record for COc1cc2c(cc1OCCCCCOc1cc3c(cc1OC)C(=O)N1C=C(C)C[C@H]1C=N3)N=C[C@@H]1CC(C)=CN1C2=O [SG3199] + O=C(c1cc(Cc2n[nH]c(=O)c3ccccc23)ccc1F)N1CCN(C(=O)C2CC2)CC1 [Olaparib] (first compound max 0.001 µM, 7x7, partner max 10 µM) , report its Bliss excess.
-0.0751

API: the following record is the query input.
Query: Bliss excess; subject: O=C(c1cc(Cc2n[nH]c(=O)c3ccccc23)ccc1F)N1CCN(C(=O)C2CC2)CC1 [Olaparib] + CC1(C)CCC(CN2CCN(c3ccc(C(=O)NS(=O)(=O)c4ccc(NCC5CCOCC5)c([N+](=O)[O-])c4)c(Oc4cnc5[nH]ccc5c4)c3)CC2)=C(c2ccc(Cl)cc2)C1 [Venetoclax] (first compound max 10 µM, 7x7, partner max 1 µM)
-0.0219
